Where do these numbers come from? They come from ChEMBL document CHEMBL4393708.

# assay.method.text: Drug uptake in RjOrl:Swiss CD-1 mouse brain at 10 mg/kg, iv administered as single dose measured after 2 hrs by LC-MS analysis
# Type: ADME, organism-based
# condition: read-out: Drug uptake
In this section we review reported concentration at 2 h values for a set of compounds.
Numeric only. Scale: ng/g

compound	unit.of.measurement	value.reported
CCc1nc(-c2ccc(F)cc2)c(-c2ccnc(NC(=O)C3CC3)c2)[nH]1	ng/g	13.3

Below: the item to evaluate.
Look at this compound and give its reported concentration at 2 h. C[S+]([O-])c1nc(-c2ccc(F)cc2)c(-c2ccnc(NC(=O)C3CC3)c2)[nH]1 (configuration not stated) 65.8
